System Name: PDGFRB (Homo sapiens)
Construct: purchased Promega (in-house HiBiT-GPCR construct library, NanoBRET)
Sequence (P09619 33-1106): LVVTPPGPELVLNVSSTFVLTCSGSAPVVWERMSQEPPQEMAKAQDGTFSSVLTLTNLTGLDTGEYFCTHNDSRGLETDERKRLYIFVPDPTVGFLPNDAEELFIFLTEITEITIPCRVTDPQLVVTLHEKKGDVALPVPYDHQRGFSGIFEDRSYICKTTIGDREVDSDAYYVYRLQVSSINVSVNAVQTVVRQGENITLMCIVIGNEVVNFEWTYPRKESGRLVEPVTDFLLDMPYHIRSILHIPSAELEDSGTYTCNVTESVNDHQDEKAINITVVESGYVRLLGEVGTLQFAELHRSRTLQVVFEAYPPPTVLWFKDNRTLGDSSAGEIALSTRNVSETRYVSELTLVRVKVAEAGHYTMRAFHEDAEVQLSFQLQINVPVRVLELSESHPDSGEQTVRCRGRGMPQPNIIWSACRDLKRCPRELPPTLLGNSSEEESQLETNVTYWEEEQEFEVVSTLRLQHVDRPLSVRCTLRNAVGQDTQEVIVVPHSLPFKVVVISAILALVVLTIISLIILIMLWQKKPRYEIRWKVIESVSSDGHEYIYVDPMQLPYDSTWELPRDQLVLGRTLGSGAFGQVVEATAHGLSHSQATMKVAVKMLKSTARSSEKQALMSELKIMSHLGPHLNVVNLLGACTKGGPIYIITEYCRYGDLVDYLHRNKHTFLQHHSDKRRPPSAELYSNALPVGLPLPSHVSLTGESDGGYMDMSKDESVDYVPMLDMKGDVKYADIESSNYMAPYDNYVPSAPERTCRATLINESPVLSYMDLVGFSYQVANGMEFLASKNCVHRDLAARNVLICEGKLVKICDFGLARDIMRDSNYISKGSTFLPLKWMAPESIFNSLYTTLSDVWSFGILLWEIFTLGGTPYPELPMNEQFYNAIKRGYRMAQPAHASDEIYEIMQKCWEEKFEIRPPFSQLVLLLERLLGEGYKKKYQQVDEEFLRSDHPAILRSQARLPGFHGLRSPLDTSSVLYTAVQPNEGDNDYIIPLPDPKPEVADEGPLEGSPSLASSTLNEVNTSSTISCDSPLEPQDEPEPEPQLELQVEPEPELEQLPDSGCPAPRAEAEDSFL
Assay Remarks: NanoBRET screen HiBiT-PDGFRB in HEK293
Assay type: binding
Measurement Conditions: PDGFRB; tracer 1μM
Observable: NanoBRET Fold Response
Reply briefly: the number, and no unit.

1. CC(C)N(CC[C@H](c1ccccc1)c1cc(CCNC(=O)CCOCCOCCOCCOCCNC(=O)CCc2ccc3n2[B-](F)(F)[N+]2=C(c4ccc[nH]4)C=CC2=C3)ccc1O)C(C)C [Tolterodine-2-NB590] | 0.94
2. Cc1cc2c(s1)Nc1ccccc1N=C2N1CCN(CCCNC(=O)CCOCCOCCOCCOCCNC(=O)CCc2ccc3n2[B-](F)(F)[N+]2=C(c4ccc[nH]4)C=CC2=C3)CC1 [Olanzapine-a-2-NB590] | 1.05

Next:
query: Please report the measured NanoBRET Fold Response for O=C(CCc1ccc2n1[B-](F)(F)[N+]1=C(c3ccc[nH]3)C=CC1=C2)NCCOCCOCCNC(=O)OCCOCCN1CCN(C2=Nc3ccccc3Sc3ccccc32)CC1 [Quetiapine-a-2-NB590]
result: 1.03
